Assign MIC against MRSA in the presence of 4 µM FeCl3 to each entry below.
Tested on: MRSA (NCTC 12493)
Format: cell-based, methicillin-resistant Staphylococcus aureus
Measurement Setup: NCTC 12493, 24 h
No end group written: not given here.
Field: numeric (µM). Do not append units.

FLPKIIGKLSSKLPKIF-NH2 [Temporin-PKE-4K] has a reported MIC against MRSA in the presence of 4 µM FeCl3 of 32

FLPLIIGKLSSLLPKIF-NH2 [Temporin-PKE-2K] has a reported MIC against MRSA in the presence of 4 µM FeCl3 of 2

FLPLIIGALSSKLPKIF-NH2 [Temporin-PKE-K12] has a reported MIC against MRSA in the presence of 4 µM FeCl3 of 8

FLPKIIGKLSSLLPKIF-NH2 [Temporin-PKE-3K] has a reported MIC against MRSA in the presence of 4 µM FeCl3 of 2

FLPLIIGALSSLLPKIF-NH2 [Temporin-PKE] has a reported MIC against MRSA in the presence of 4 µM FeCl3 of 8
